- Tested on: PC-3 prostate
- method-notes: NCI-60 one-dose screen, 48 h (100 = growth as untreated, 0 = no growth, -100 = all killed)
- protocol-conditions: 10 µM unless noted
This is part of a sample that, as a whole, favours compounds with a hit. Of some 83,000 tested, about 20% had one in any assay. Calls of active or inactive are those of the source. How the source made its calls: active means growth percent below 10; inactive means the rest.
Listed compounds paired with reported growth

>  <compound>
O=C(C(Br)Br)C(Br)C(Br)c1ccccc1 (stereo not drawn)

>  <growth>
101% (inactive)

$$$$
>  <compound>
CC(C)[C@H]1CC[C@H]2[C@@H](CC[C@H]3[C@](C)(CN)CCC[C@]23C)C1

>  <growth>
65.1% (inactive)

$$$$
>  <compound>
COc1ccc2c(c1)nc(N)c1c3cc(OC)c(OC)cc3cn21

>  <growth>
53.1% (inactive)

$$$$
>  <compound>
COc1ccc(C2=NNC(c3cc(Cc4ccc(O)c(C5CC(c6ccc(OC)cc6)=NN5)c4)ccc3O)C2)cc1 (stereo not drawn)

>  <growth>
42.4% (inactive)

$$$$
>  <compound>
O=C(CSc1nc2c(n1Nc1ccccc1)-c1ccccc1SC2)Nc1nc(-c2ccc(Cl)cc2)cs1

>  <growth>
72.2% (inactive)

$$$$
>  <compound>
O=C(Nc1nc2ccccc2s1)c1cc(-c2ccc(F)cc2)n2nc(-c3ccccc3)cc2n1

>  <growth>
56.9% (inactive)

$$$$
>  <compound>
COc1cc(/C=C2\CCC/C(=C\c3ccc(OCC4CO4)c(OC)c3)C2=O)ccc1OCC1CO1 (stereo not drawn)

>  <growth>
50.7% (inactive)

$$$$
>  <compound>
COc1ccc(/C=C(\C#N)c2ccccc2)cc1

>  <growth>
83.3% (inactive)

$$$$
>  <compound>
COc1cc(OC)c2cc(C(=O)O)c(=O)oc2c1

>  <growth>
127% (inactive)

$$$$
>  <compound>
COc1cccc2c1O/C(=C\c1c([N+](=O)[O-])ncn1C)C2=O

>  <growth>
-29.8% (active)

$$$$
>  <compound>
CCN1C[C@@H](C)n2c(c(O)c3c(=O)n(Cc4ccc(F)c(Cl)c4)nc(C(=O)NC)c32)C1=O

>  <growth>
69.4% (inactive)

$$$$
>  <compound>
Cc1ccc(NC(=O)COC(=O)c2ccc(S(=O)(=O)N3CCCCCC3)cc2)cc1

>  <growth>
93.6% (inactive)

$$$$
>  <compound>
N#Cc1cccc(/C=C(/C(=O)c2ccccc2)c2ccccc2)c1

>  <growth>
66.5% (inactive)

$$$$
